Data provenance is paper PMC5075052.

Tested on: E. coli TG1
Experiment: Monospecies bacterial biofilm inhibition, static peg assay
Format: cell-based, Escherichia coli
Details: Escherichia coli, TG1, E. coli TG1, 37°C; read-out: IC50 (planktonic growth)
pIC50: −log10 of the molar value.
Binary classification by pIC50, with 4 as an inclusive lower bound for met; all other cases are not met.

Sample answers from the record:
{"columns": ["SUBSTANCE_SMILES", "CATEGORY"],
 "data": [
  ["CCCCNc1ncc(-c2ccc(Br)cc2)[nH]1", "met"],
  ["CCCCCCCCn1c(-c2ccccc2)cnc1NCC(C)C", "met"],
  ["CCCCCCCCn1c(-c2ccc(Cl)cc2)cnc1NC1CCCC1", "not met"]
]}

Data request: Has "CCCCCCCCn1c(-c2ccc(Br)cc2)cnc1NC1CCCC1" a recorded pIC50 greater than or equal to 4?
Data returned: not met

Data request: Has "CCCCCCCCn1c(-c2ccc(Br)cc2)cnc1NCC(C)C" a recorded pIC50 greater than or equal to 4?
Data returned: met

Data request: Has "CCCCCCCCn1c(-c2ccccc2)cnc1NC1CCCC1" a recorded pIC50 greater than or equal to 4?
Data returned: met

Data request: Has "Brc1ccc(-c2cnc(NCCn3cc(C4CC4)nn3)[nH]2)cc1" a recorded pIC50 greater than or equal to 4?
Data returned: not met

Data request: Has "CCCCCCCCn1c(-c2ccc(Cl)cc2)cnc1NCC(C)C" a recorded pIC50 greater than or equal to 4?
Data returned: met

Data request: Has "CCCCCn1c(-c2ccccc2)cnc1N" a recorded pIC50 greater than or equal to 4?
Data returned: met
